Target: T1, VLP2 (virus-like particles of AAV2) (AAV2, UniProt P03135 1-735; P03135 1-598; P03135 1-533)
T1 construct: Empty AAV2 capsid; background says about 60 protein molecules, VP1:VP2:VP3 = 1:1:10; Immobilised on the ELISA plate
T1 sequence (P03135 whole entry, chain 1 of 3): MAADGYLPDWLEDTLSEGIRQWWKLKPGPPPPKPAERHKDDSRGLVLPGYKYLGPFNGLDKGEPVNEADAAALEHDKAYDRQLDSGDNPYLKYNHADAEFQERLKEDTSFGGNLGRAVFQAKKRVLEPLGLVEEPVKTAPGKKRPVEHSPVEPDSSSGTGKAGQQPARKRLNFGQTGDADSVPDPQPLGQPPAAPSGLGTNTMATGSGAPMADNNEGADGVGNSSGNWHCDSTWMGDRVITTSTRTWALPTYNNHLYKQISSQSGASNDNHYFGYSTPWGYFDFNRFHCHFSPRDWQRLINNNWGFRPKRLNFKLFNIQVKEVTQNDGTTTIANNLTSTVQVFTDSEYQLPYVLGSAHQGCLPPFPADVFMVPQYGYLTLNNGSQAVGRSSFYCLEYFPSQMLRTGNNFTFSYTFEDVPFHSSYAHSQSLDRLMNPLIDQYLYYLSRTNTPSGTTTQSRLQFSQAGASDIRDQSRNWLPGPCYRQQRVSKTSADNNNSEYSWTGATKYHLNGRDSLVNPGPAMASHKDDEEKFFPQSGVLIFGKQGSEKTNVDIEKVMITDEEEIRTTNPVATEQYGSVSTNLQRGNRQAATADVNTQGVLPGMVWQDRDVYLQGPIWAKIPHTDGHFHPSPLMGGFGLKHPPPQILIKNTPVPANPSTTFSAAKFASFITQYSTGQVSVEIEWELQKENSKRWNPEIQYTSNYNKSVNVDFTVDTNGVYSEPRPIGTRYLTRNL
T1 sequence (P03135 139-735, tags left off, chain 2 of 3): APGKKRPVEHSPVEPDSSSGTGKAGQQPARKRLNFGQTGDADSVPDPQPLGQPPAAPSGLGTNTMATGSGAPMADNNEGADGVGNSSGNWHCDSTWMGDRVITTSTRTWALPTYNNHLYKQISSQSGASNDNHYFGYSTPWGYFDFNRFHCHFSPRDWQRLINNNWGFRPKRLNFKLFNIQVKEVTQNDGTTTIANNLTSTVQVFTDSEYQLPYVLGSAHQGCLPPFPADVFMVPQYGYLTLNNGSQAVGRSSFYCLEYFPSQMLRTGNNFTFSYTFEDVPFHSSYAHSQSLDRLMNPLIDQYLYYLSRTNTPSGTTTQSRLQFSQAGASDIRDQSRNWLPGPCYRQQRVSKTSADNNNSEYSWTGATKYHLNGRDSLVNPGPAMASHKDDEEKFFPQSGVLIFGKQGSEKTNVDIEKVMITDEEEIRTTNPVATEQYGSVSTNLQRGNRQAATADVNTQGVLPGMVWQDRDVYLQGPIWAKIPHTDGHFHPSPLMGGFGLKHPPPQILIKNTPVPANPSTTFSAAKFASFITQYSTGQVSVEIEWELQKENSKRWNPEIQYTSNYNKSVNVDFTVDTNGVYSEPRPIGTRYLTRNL
T1 sequence (P03135 203-735, chain 3 of 3): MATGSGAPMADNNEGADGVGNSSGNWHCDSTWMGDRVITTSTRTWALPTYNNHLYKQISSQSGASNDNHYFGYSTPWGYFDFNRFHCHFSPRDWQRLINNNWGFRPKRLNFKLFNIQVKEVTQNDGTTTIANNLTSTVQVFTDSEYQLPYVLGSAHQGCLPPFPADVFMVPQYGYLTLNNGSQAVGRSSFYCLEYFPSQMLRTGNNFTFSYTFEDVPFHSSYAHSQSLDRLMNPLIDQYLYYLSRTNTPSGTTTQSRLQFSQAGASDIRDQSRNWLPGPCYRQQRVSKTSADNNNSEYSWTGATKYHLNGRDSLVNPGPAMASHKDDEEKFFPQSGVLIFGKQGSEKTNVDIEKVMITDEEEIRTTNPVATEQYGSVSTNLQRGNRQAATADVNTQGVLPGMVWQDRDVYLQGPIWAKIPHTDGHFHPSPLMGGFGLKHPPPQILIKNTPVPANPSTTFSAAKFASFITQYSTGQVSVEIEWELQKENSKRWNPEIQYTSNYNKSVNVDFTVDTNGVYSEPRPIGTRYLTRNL
Experiment: ELISA on VLP2; binding after pH 10.0 41.2°C 15 min / untreated
Criterion: Residual activity [%] meeting or surpassing 60%. Met: criterion met. Not met: criterion not met.

{"columns": ["binder", "classification"],
 "data": [
  ["AAV-binding protein No. 111 (AVR8g + Lys(Glu)362Gly) (receptor, Glu362 of AVR8g replaced by Gly) MGSAGESDQITLPKNEVQLNAYVLQEPPKGETCTYDWQLITHPRDYSGEMEGGHSQILKLSNLTPGLYEFKVIVEGQNAHSEGYVNVTVEPEPRKNRPPIAIVSPQFQEISLPTTSTVIDGSQSTDDDKIVQYHWEELKGPLREEKISEDTAILKLSKLVPGNYTFRLTVVDSDGATDSTTANLTVNKAVDHHHHHH", "criterion not met"],
  ["AAV-binding protein No. 146 (AVR8g + Leu372Gln, Leu376Pro, Val394Asp) (receptor) MGSAGESDQITLPKNEVQLNAYVLQEPPKGETCTYDWQLITHPRDYSGEMEGEHSQILKLSNQTPGPYEFKVIVEGQNAHSEGYDNVTVEPEPRKNRPPIAIVSPQFQEISLPTTSTVIDGSQSTDDDKIVQYHWEELKGPLREEKISEDTAILKLSKLVPGNYTFRLTVVDSDGATDSTTANLTVNKAVDHHHHHH", "criterion met"],
  ["AAV-binding protein No. 121 (AVR8g + Val381Ala) (receptor) MGSAGESDQITLPKNEVQLNAYVLQEPPKGETCTYDWQLITHPRDYSGEMEGEHSQILKLSNLTPGLYEFKAIVEGQNAHSEGYVNVTVEPEPRKNRPPIAIVSPQFQEISLPTTSTVIDGSQSTDDDKIVQYHWEELKGPLREEKISEDTAILKLSKLVPGNYTFRLTVVDSDGATDSTTANLTVNKAVDHHHHHH", "criterion met"],
  ["AAV-binding protein No. 118 (AVR8g + Glu378Gly) (receptor) MGSAGESDQITLPKNEVQLNAYVLQEPPKGETCTYDWQLITHPRDYSGEMEGEHSQILKLSNLTPGLYGFKVIVEGQNAHSEGYVNVTVEPEPRKNRPPIAIVSPQFQEISLPTTSTVIDGSQSTDDDKIVQYHWEELKGPLREEKISEDTAILKLSKLVPGNYTFRLTVVDSDGATDSTTANLTVNKAVDHHHHHH", "criterion met"],
  ["AAV-binding protein No. 150 (AVR8g + Val396Ala, Gln441Arg, Lys448Glu) (receptor) MGSAGESDQITLPKNEVQLNAYVLQEPPKGETCTYDWQLITHPRDYSGEMEGEHSQILKLSNLTPGLYEFKVIVEGQNAHSEGYVNATVEPEPRKNRPPIAIVSPQFQEISLPTTSTVIDGSQSTDDDKIVRYHWEELEGPLREEKISEDTAILKLSKLVPGNYTFRLTVVDSDGATDSTTANLTVNKAVDHHHHHH", "criterion not met"],
  ["AAV-binding protein No. 128 (AVR8g + Ser312Pro, Pro374Leu) (receptor) MGPAGESDQITLPKNEVQLNAYVLQEPPKGETCTYDWQLITHPRDYSGEMEGEHSQILKLSNLTLGLYEFKVIVEGQNAHSEGYVNVTVEPEPRKNRPPIAIVSPQFQEISLPTTSTVIDGSQSTDDDKIVQYHWEELKGPLREEKISEDTAILKLSKLVPGNYTFRLTVVDSDGATDSTTANLTVNKAVDHHHHHH", "criterion met"],
  ["AAV-binding protein No. 145 (AVR8g + Trp346Cys, Arg353Cys, His389Arg) (receptor) MGSAGESDQITLPKNEVQLNAYVLQEPPKGETCTYDCQLITHPCDYSGEMEGEHSQILKLSNLTPGLYEFKVIVEGQNARSEGYVNVTVEPEPRKNRPPIAIVSPQFQEISLPTTSTVIDGSQSTDDDKIVQYHWEELKGPLREEKISEDTAILKLSKLVPGNYTFRLTVVDSDGATDSTTANLTVNKAVDHHHHHH", "criterion met"],
  ["AAV-binding protein No. 148 (AVR8g + Glu384Val, Gln432Arg, Ile456Val) (receptor) MGSAGESDQITLPKNEVQLNAYVLQEPPKGETCTYDWQLITHPRDYSGEMEGEHSQILKLSNLTPGLYEFKVIVVGQNAHSEGYVNVTVEPEPRKNRPPIAIVSPQFQEISLPTTSTVIDGSRSTDDDKIVQYHWEELKGPLREEKVSEDTAILKLSKLVPGNYTFRLTVVDSDGATDSTTANLTVNKAVDHHHHHH", "criterion not met"],
  ["AAV-binding protein No. 138 (AVR8g + Gly361Cys, Gly(Ser)390Gly) (receptor, Gly(Ser)390Gly read as Ser390 of AVR8g back to the wild-type Gly, so Gly390Ser is not applied) MGSAGESDQITLPKNEVQLNAYVLQEPPKGETCTYDWQLITHPRDYSGEMECEHSQILKLSNLTPGLYEFKVIVEGQNAHGEGYVNVTVEPEPRKNRPPIAIVSPQFQEISLPTTSTVIDGSQSTDDDKIVQYHWEELKGPLREEKISEDTAILKLSKLVPGNYTFRLTVVDSDGATDSTTANLTVNKAVDHHHHHH", "criterion not met"],
  ["AAV-binding protein No. 147 (AVR8g + Phe379Cys, Gln432Leu, Ser488Leu) (receptor) MGSAGESDQITLPKNEVQLNAYVLQEPPKGETCTYDWQLITHPRDYSGEMEGEHSQILKLSNLTPGLYECKVIVEGQNAHSEGYVNVTVEPEPRKNRPPIAIVSPQFQEISLPTTSTVIDGSLSTDDDKIVQYHWEELKGPLREEKISEDTAILKLSKLVPGNYTFRLTVVDSDGATDLTTANLTVNKAVDHHHHHH", "criterion met"]
]}
